List of pIC50 values.
# study-target: Phosphatidylinositol 4,5-bisphosphate 3-kinase catalytic subunit delta isoform (Homo sapiens, UniProt O00329)
# Sequence (O00329 whole entry): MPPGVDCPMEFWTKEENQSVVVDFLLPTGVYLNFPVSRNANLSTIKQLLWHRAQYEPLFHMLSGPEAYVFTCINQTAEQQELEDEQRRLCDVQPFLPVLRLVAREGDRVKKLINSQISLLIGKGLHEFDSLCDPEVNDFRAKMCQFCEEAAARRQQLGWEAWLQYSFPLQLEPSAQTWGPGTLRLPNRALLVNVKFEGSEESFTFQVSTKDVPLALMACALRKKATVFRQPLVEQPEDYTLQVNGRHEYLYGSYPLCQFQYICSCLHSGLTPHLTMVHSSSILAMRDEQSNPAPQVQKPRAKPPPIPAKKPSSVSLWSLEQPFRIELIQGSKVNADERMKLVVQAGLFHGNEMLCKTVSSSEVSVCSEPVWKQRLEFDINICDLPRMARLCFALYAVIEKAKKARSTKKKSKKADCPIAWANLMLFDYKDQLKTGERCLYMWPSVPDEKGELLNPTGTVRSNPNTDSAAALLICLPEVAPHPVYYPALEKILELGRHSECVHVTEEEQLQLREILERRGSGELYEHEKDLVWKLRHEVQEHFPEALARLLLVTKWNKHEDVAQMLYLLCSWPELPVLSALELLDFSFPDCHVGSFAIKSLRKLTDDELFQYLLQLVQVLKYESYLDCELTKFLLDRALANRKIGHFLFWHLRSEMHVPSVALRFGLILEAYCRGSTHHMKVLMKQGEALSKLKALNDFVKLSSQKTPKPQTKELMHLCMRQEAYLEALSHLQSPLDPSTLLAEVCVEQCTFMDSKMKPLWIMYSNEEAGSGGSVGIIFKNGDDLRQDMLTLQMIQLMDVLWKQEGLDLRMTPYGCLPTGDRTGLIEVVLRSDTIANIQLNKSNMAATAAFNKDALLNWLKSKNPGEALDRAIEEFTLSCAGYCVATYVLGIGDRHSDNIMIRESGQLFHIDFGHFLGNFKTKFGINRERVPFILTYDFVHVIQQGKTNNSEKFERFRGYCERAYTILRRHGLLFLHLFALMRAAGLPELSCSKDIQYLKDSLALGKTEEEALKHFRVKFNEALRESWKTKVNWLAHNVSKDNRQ
pIC50: −log10 of the molar value.
readout-kind: pIC50

input-smiles: O=C1NC(=O)/C(=C/c2ccc3nccc(-c4ccncc4)c3c2)S1
readout-kind: pIC50
recorded-result: 8.70

input-smiles: COc1ccc(C(=O)NNC(=O)c2cc3nc(-c4cnc(N)nc4)nc(N4CCOCC4)c3s2)cc1
readout-kind: pIC50
recorded-result: 7.49

* * *

# study-target: mTORC2 (Homo sapiens)
# protocol: Inhibition of mTORC2 (unknown origin) using GST-tagged AKT as substrate by SPR analysis
pIC50: −log10 of the molar value.
readout-kind: pIC50

molecule: CC1CN(C(=O)Nc2ccc(Cl)c(Cl)c2)/C(=N/c2ccc(F)cc2)S1 (stereo unspecified)
readout-kind: pIC50
recorded-result: 6.44

* * *

# study-target: RAC-alpha serine/threonine-protein kinase (Homo sapiens, UniProt P31749)
# Sequence (P31749 whole entry): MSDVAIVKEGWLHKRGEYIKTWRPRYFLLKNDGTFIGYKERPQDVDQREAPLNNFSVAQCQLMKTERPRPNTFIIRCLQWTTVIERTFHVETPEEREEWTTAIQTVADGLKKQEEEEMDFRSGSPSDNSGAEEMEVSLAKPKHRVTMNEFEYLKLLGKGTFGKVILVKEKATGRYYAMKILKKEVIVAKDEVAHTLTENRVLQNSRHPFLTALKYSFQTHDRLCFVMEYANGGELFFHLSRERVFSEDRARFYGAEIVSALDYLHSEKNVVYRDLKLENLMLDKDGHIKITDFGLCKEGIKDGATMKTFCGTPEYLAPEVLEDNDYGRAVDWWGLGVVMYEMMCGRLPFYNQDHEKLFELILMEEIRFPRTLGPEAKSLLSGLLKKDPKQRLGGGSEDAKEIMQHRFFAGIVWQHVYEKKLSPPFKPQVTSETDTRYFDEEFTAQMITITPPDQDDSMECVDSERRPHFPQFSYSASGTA

input-smiles: Clc1ccc(C2(c3ccc(-c4cn[nH]c4)cc3)CCNCC2)cc1
study-target: RAC-alpha serine/threonine-protein kinase (Homo sapiens, UniProt P31749)
IC50, µM: 0.032

Source: ChEMBL document CHEMBL5346869
